Test system: Spodoptera littoralis
assay: Spodoptera littoralis persistence test on sprayed cotton plants (increased safety profile / bio-degradability)
Format: in vivo
experimental parameters: Spodoptera littoralis, 384 h; 12.5 ppm on cotton plants; leaves excised 16 days after treatment, 10 L3 larvae, mortality after 6 days incubation; read-out: Control after 16 days/%
quantity: pest or weed control at 12.5 ppm (%)
Numbers only, in %.

For each entry beneath this line, provide reported pest or weed control at 12.5 ppm.
1. Cc1cc(C2=NOC(c3cc(Cl)cc(Cl)c3)(C(F)(F)F)C2)ccc1C(=O)NC1CS(=O)(=O)C1 (stereo not drawn) [Compound A10 from WO2009/080250, reference compound]
2. Cc1cc(C2=NSC(c3cc(Cl)cc(Cl)c3)(C(F)(F)F)C2)ccc1C(=O)NCC(C)C (stereo not drawn)
3. Cc1cc(C2=NSC(c3cc(Cl)cc(Cl)c3)(C(F)(F)F)C2)ccc1C(=O)NCc1ccccn1 (stereo not drawn)
4. Cc1cc(C2=NSC(c3cc(Cl)cc(Cl)c3)(C(F)(F)F)C2)ccc1C(=O)NC1(C#N)CC1 (stereo not drawn)

[100, 0, 10, 0]

Please report pest or weed control at 12.5 ppm for every entry that follows.
1. CO/N=C/NC(=O)c1ccc(C2=NSC(c3cc(Cl)cc(Cl)c3)(C(F)(F)F)C2)cc1Cl (stereo not drawn)
2. Cc1cc(C2=NOC(c3cc(Cl)cc(Cl)c3)(C(F)(F)F)C2)ccc1C(=O)NCC(=O)NCC(F)(F)F (stereo not drawn) [Compound 3-086 from EP1731512, reference compound]
3. Cc1cc(C2=NSC(c3cc(Cl)cc(Cl)c3)(C(F)(F)F)C2)ccc1C(=O)Nc1ccc(F)cc1 (stereo not drawn)
4. Cc1cc(C2=NSC(c3cc(Cl)cc(Cl)c3)(C(F)(F)F)C2)ccc1C(=O)NCC(=O)NCC(F)(F)F (stereo not drawn)
5. Cc1cc(C2=NSC(c3cc(Cl)cc(Cl)c3)(C(F)(F)F)C2)ccc1C(=O)NCC1CC1 (stereo not drawn)
6. Cc1cc(C2=NSC(c3cc(Cl)c(Cl)c(Cl)c3)(C(F)(F)F)C2)ccc1C(=O)NCC(=O)NCC(F)(F)F (stereo not drawn) [Compound D1]
7. CO/N=C/NC(=O)c1ccc(C2=NSC(c3cc(Cl)cc(Cl)c3)(C(F)(F)F)C2)cc1C (stereo not drawn)
8. Cc1cc(C2=NOC(c3cc(Cl)cc(Cl)c3)(C(F)(F)F)C2)ccc1C(=O)NCc1ccccn1 (stereo not drawn) [Compound 1-061 from EP1731512, reference compound]

[0, 100, 10, 10, 0, 10, 5, 100]
